Exercise: state measured IC50 for each of the molecules provided.
molecular target: CXCR4 (Homo sapiens, UniProt P61073); assay: Ca2+-assay method 2 (Flexstation, SDF-1 induced calcium mobilization); assay type: cell-based; set-up: expressed in transfected cells; host or cells: mouse pre-B cell line 300-19; conditions: method 2 (Ex. 54-160), mouse pre-B cell line 300-19 with human CXCR4, 10 nM SDF-1; read-out: IC50 (nM) Ca^2+ assay
Sequence (P61073 whole entry): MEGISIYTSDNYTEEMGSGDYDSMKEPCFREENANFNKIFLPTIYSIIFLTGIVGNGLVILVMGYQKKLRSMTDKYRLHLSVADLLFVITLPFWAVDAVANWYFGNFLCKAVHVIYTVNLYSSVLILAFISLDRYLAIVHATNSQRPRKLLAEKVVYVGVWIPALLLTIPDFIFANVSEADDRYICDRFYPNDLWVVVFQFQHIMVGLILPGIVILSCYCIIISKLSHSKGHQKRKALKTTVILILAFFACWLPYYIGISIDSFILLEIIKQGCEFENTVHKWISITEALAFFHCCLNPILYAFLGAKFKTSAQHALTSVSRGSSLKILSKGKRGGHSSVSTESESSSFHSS
Bridge positions count the residues as written; N and C are the ends. Square brackets hold non-standard residues; d marks the D form. Peptide text beside a SMILES is read from it. 2Nal = N[C@@H](Cc1ccc2ccccc2c1)C(=O)O
Reply with the number and its unit after it.

- Molecule: "N=C(N)NCCC[C@@H]1NC(=O)[C@@H]2CSSC[C@H](NC(=O)[C@H](Cc3ccc4ccccc4c3)NC(=O)[C@H](CCCNC(=N)N)NC(=O)[C@H](CCCNC(=N)N)NC(=O)[C@H]3CCCN3C(=O)CNC1=O)C(=O)N[C@@H](Cc1ccc(O)cc1)C(=O)N[C@@H](CCC(N)=O)C(=O)N[C@@H](CCCCN)C(=O)N1CCC[C@@H]1C(=O)N1CCC[C@H]1C(=O)N[C@@H](Cc1ccc(O)cc1)C(=O)N[C@@H](CCCNC(=N)N)C(=O)N1CCC[C@H]1C(=O)N2 [Ex. 74] (cyclo(YRPCRG[dP]RR[2Nal]CYQK[dP]P); disulfide 4-11)"
  Recorded Measurement: "19.5 nM"

Data point: C[C@@H](O)[C@@H]1NC(=O)[C@H](CCCNC(=N)N)NC(=O)[C@H](Cc2ccc(O)cc2)NC(=O)[C@@H]2CCCN2C(=O)[C@H]2CCCN2C(=O)[C@H](CCCCN)NC(=O)[C@H](CCC(N)=O)NC(=O)[C@H](Cc2ccc(O)cc2)NC(=O)[C@@H]2CSSC[C@H](NC1=O)C(=O)N[C@@H](CCCNC(=N)N)C(=O)NCC(=O)N1CCC[C@@H]1C(=O)N[C@@H](CCCNC(=N)N)C(=O)N[C@@H](CCCNC(=N)N)C(=O)N[C@@H](Cc1ccc(O)cc1)C(=O)N2 [Ex. 145] (cyclo(YRTCRG[dP]RRYCYQK[dP]P); disulfide 4-11) ; IC50 = 0.38 nM
